# Target entity: human recombinant TPK1 (Homo sapiens, UniProt P49841)
# Sequence (P49841 whole entry): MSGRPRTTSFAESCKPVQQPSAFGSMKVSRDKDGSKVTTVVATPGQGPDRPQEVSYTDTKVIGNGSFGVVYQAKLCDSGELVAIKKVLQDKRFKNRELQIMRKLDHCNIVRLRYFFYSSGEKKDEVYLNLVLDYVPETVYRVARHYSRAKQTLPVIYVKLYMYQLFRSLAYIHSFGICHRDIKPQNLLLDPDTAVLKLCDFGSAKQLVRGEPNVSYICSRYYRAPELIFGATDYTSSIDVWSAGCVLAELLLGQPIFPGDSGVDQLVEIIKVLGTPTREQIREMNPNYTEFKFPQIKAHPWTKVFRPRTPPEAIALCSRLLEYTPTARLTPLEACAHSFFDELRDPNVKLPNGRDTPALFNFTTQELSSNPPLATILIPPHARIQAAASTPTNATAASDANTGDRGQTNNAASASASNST
# Measurement protocol: Inhibitory activity against P-GS1 phosphorylation by TPK1 (Kinase Glo luminescence)
# Condition set: 7.5 μM P-GS1, 10 μM ATP, 25° C. for 16 hours, Kinase Glo Reagent luminescent signal
Output schema: class label derived from IC50. Mapping: category 1 (below 10 nM), category 2 (10 nM to below 30 nM), category 3 (30 nM or more)

{"columns": ["Compound", "Target entity", "Assigned category"],
 "data": [
  ["Cn1c(N2CCCO[C@H](c3cccc(C(N)=O)c3)C2)nc(-c2ccncc2F)cc1=O", "human recombinant TPK1 (Homo sapiens, UniProt P49841)", "category 2"],
  ["Cc1noc(-c2ccc(C3COCCN(c4nc(-c5ccncc5F)cc(=O)n4C)C3)cc2)n1 (stereo not shown)", "human recombinant TPK1 (Homo sapiens, UniProt P49841)", "category 1"],
  ["Cn1c(N2CCCO[C@@H](c3cccc(Br)c3)C2)nc(-c2ccncc2)cc1=O", "human recombinant TPK1 (Homo sapiens, UniProt P49841)", "category 2"],
  ["Cn1c(N2CCCOC(c3ccccc3)C2)nc(-c2ccncc2)cc1=O (stereo not shown)", "human recombinant TPK1 (Homo sapiens, UniProt P49841)", "category 3"],
  ["Cn1c(N2CCOC[C@@H](c3ccc(C#N)cc3)C2)nc(-c2ccncn2)cc1=O", "human recombinant TPK1 (Homo sapiens, UniProt P49841)", "category 1"],
  ["CC1CN(c2nc(-c3ccncn3)cc(=O)n2C)CCCO1 (stereo not shown)", "human recombinant TPK1 (Homo sapiens, UniProt P49841)", "category 3"],
  ["Cn1c(N2CCCO[C@@H](c3cccc(C#N)c3)C2)nc(-c2ccncn2)cc1=O", "human recombinant TPK1 (Homo sapiens, UniProt P49841)", "category 3"],
  ["Cc1nc(-c2ccc(C3CCN(c4nc(-c5ccncn5)cc(=O)n4C)CCO3)cc2)no1 (single isomer, unassigned; (+)) [Compound A100]", "human recombinant TPK1 (Homo sapiens, UniProt P49841)", "category 2"],
  ["Cc1nc(-c2ccc([C@@H]3CN(c4nc(-c5ccncc5F)cc(=O)n4C)CCCO3)cc2)no1", "human recombinant TPK1 (Homo sapiens, UniProt P49841)", "category 3"],
  ["Cn1c(N2CCCO[C@@H](c3cccc(C(N)=O)c3)C2)nc(-c2ccncc2)cc1=O", "human recombinant TPK1 (Homo sapiens, UniProt P49841)", "category 2"],
  ["Cc1noc(-c2cccc([C@@H]3CN(c4nc(-c5ccncc5F)cc(=O)n4C)CCCO3)c2)n1", "human recombinant TPK1 (Homo sapiens, UniProt P49841)", "category 3"],
  ["Cn1c(N2CCCOC(c3ccccc3)C2)nc(-c2ccncn2)cc1=O (stereo not shown)", "human recombinant TPK1 (Homo sapiens, UniProt P49841)", "category 2"],
  ["Cn1c(N2CCCO[C@@H](c3cccc(C(N)=O)c3)C2)nc(-c2ccncn2)cc1=O", "human recombinant TPK1 (Homo sapiens, UniProt P49841)", "category 1"],
  ["Cn1c(N2CCCO[C@H](c3cccc(Br)c3)C2)nc(-c2ccncc2F)cc1=O", "human recombinant TPK1 (Homo sapiens, UniProt P49841)", "category 2"]
]}

---

# Target entity: human recombinant TPK1 (Homo sapiens, UniProt P49841)
# Measurement protocol: Inhibitory activity against P-GS1 phosphorylation by TPK1 (Kinase Glo luminescence)
# Condition set: 7.5 μM P-GS1, 10 μM ATP, 25° C. for 16 hours, Kinase Glo Reagent luminescent signal
pIC50: −log10 of the molar value.
Measured pIC50 values are reported for all entries that follow.

{"columns": ["Molecule", "Target entity", "pIC50"],
 "data": [
  ["COc1ccccc1C1CCN(c2nc(-c3ccncn3)cc(=O)n2C)CCO1 (centres unmarked)", "human recombinant TPK1 (Homo sapiens, UniProt P49841)", 7.79],
  ["Cc1nc(-c2cccc([C@H]3CN(c4nc(-c5ccncc5F)cc(=O)n4C)CCCO3)c2)no1", "human recombinant TPK1 (Homo sapiens, UniProt P49841)", 7.99],
  ["Cc1noc(-c2cccc([C@H]3CN(c4nc(-c5ccncn5)cc(=O)n4C)CCCO3)c2)n1", "human recombinant TPK1 (Homo sapiens, UniProt P49841)", 7.24],
  ["COc1ccc(C2CCN(c3nc(-c4ccncc4)cc(=O)n3C)CCO2)cc1 (centres unmarked)", "human recombinant TPK1 (Homo sapiens, UniProt P49841)", 7.23],
  ["Cc1noc(-c2cccc([C@H]3CN(c4nc(-c5ccncc5)cc(=O)n4C)CCCO3)c2)n1", "human recombinant TPK1 (Homo sapiens, UniProt P49841)", 6.77],
  ["Cn1c(N2CCOC(c3ccc(-c4ncno4)cc3)CC2)nc(-c2ccncn2)cc1=O (single isomer, unassigned; (+)) [Compound A107]", "human recombinant TPK1 (Homo sapiens, UniProt P49841)", 7.64],
  ["Cn1c(N2CCCO[C@H](c3cccc(Br)c3)C2)nc(-c2ccncc2)cc1=O", "human recombinant TPK1 (Homo sapiens, UniProt P49841)", 7.90],
  ["Cn1c(N2CCCO[C@@H](c3ccc(F)cc3)C2)nc(-c2ccncc2)cc1=O", "human recombinant TPK1 (Homo sapiens, UniProt P49841)", 7.90]
]}

---

# Target entity: human recombinant TPK1 (Homo sapiens)
# Measurement protocol: Inhibitory activity against P-GS1 phosphorylation by TPK1 (Kinase Glo luminescence)
# Condition set: 7.5 μM P-GS1, 10 μM ATP, 25° C. for 16 hours, Kinase Glo Reagent luminescent signal
Property label: log10 of IC50 (log10 of the value in nM)

{"columns": ["Molecule", "Target entity", "log10 of IC50"],
 "data": [
  ["Cn1c(N2CCCO[C@H](c3ccc(C(N)=O)cc3)C2)nc(-c2ccncn2)cc1=O [Compound A060]", "human recombinant TPK1 (Homo sapiens)", 2.40],
  ["Cn1c(N2CCCO[C@@H](c3ccc(C#N)cc3)C2)nc(-c2ccncc2F)cc1=O [Compound A013]", "human recombinant TPK1 (Homo sapiens)", 0.86],
  ["Cn1c(N2CCCO[C@@H](c3ccc(C#N)cc3)C2)nc(-c2ccncc2)cc1=O [Compound A037]", "human recombinant TPK1 (Homo sapiens)", 1.49],
  ["Cn1c(N2CCCO[C@H](c3ccc(F)cc3)C2)nc(-c2ccncc2F)cc1=O [Compound A054]", "human recombinant TPK1 (Homo sapiens)", 2.05],
  ["CCC1CCOCCN1c1nc(-c2ccncc2F)cc(=O)n1C (stereo not shown) [Compound A072]", "human recombinant TPK1 (Homo sapiens)", 1.81],
  ["Cc1noc(-c2ccc([C@H]3CN(c4nc(-c5ccncc5F)cc(=O)n4C)CCCO3)cc2)n1 [Compound A019]", "human recombinant TPK1 (Homo sapiens)", 1.05],
  ["Cn1c(N2CCCO[C@H](c3ccc(C(N)=O)cc3)C2)nc(-c2ccncc2)cc1=O [Compound A062]", "human recombinant TPK1 (Homo sapiens)", 2.91],
  ["Cn1c(N2CCCO[C@H](c3cccc(C#N)c3)C2)nc(-c2ccncc2F)cc1=O [Compound A047]", "human recombinant TPK1 (Homo sapiens)", 1.83],
  ["Cc1nc(-c2ccc(C3CCN(c4nc(-c5ccncc5F)cc(=O)n4C)CCO3)cc2)no1 (single isomer, unassigned; (+)) [Compound A091]", "human recombinant TPK1 (Homo sapiens)", 0.83],
  ["Cc1noc(-c2ccc(C3CCN(c4nc(-c5ccncc5F)cc(=O)n4C)CCO3)cc2)n1 (single isomer, unassigned; (-)) [Compound A113]", "human recombinant TPK1 (Homo sapiens)", 1.48],
  ["COc1cccc(C2CCN(c3nc(-c4ccncn4)cc(=O)n3C)CCO2)c1 (stereo not shown) [Compound A101]", "human recombinant TPK1 (Homo sapiens)", 1.18],
  ["Cc1noc(-c2ccc([C@H]3CN(c4nc(-c5ccncn5)cc(=O)n4C)CCCO3)cc2)n1 [Compound A031]", "human recombinant TPK1 (Homo sapiens)", 1.31],
  ["Cn1c(N2CCOCCC2c2ccccc2)nc(-c2ccncc2F)cc1=O (stereo not shown) [Compound A066]", "human recombinant TPK1 (Homo sapiens)", 0.74],
  ["Cc1nc(-c2ccc([C@H]3CN(c4nc(-c5ccncc5F)cc(=O)n4C)CCCO3)cc2)no1 [Compound A027]", "human recombinant TPK1 (Homo sapiens)", 1.19],
  ["Cc1nc(-c2ccc(C3CN(c4nc(-c5ccncn5)cc(=O)n4C)CCCO3)cc2)no1 (stereo in doubt) [Compound A034]", "human recombinant TPK1 (Homo sapiens)", 1.37],
  ["Cn1c(N2CCCO[C@@H](c3ccc(Br)cc3)C2)nc(-c2ccncn2)cc1=O [Compound A009]", "human recombinant TPK1 (Homo sapiens)", 0.72]
]}
